# system_name: HIV-1 YU-2 gp120 (HIV-1 (YU-2), UniProt P35961)
# assay_notes: SPR
measure_name: koff (s⁻¹)
One number for each entry, in s⁻¹.

Some entries whose results are on file:
INSERT INTO assay_data (binder, measure_name, reading_unit, readout_value) VALUES
  ('Fab m18 R100aE (HCDR3) (Fab, V domains shown) VH: VQLLESGPGVVKPSETLSLTCTVSGASVNNYYWTWVRQPPGKGLEWIGNVYDSGDTNYNPSLSSRLSLSMDTSKNQFSLRLSSVTAADTATYYCARYHRHFIEGPLSFDYWGRGTLVTVSS VL: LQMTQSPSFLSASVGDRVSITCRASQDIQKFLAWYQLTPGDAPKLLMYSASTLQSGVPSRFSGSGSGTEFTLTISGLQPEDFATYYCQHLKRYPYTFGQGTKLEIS', 'koff', 's⁻¹', 0.0011),
  ('Fab m18 Y33A (HCDR1) (Fab, V domains shown) VH: VQLLESGPGVVKPSETLSLTCTVSGASVNNYAWTWVRQPPGKGLEWIGNVYDSGDTNYNPSLSSRLSLSMDTSKNQFSLRLSSVTAADTATYYCARYHRHFIRGPLSFDYWGRGTLVTVSS VL: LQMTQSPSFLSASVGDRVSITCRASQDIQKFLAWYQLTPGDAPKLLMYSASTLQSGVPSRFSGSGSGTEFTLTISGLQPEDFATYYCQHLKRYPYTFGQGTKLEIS', 'koff', 's⁻¹', 0.0038),
  ('Fab m18 I100A (HCDR3) (Fab, V domains shown) VH: VQLLESGPGVVKPSETLSLTCTVSGASVNNYYWTWVRQPPGKGLEWIGNVYDSGDTNYNPSLSSRLSLSMDTSKNQFSLRLSSVTAADTATYYCARYHRHFARGPLSFDYWGRGTLVTVSS VL: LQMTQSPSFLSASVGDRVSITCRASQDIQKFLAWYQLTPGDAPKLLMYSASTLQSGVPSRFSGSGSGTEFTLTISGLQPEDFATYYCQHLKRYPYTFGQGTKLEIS', 'koff', 's⁻¹', 0.00036);

Record koff per entry; entries follow.
1. Fab m18 N30A (HCDR1) (Fab, V domains shown) VH: VQLLESGPGVVKPSETLSLTCTVSGASVANYYWTWVRQPPGKGLEWIGNVYDSGDTNYNPSLSSRLSLSMDTSKNQFSLRLSSVTAADTATYYCARYHRHFIRGPLSFDYWGRGTLVTVSS VL: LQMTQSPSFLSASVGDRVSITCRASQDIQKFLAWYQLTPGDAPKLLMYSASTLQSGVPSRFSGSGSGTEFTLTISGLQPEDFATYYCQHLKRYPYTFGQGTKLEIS
2. Fab m18 S56A (LCDR2) (Fab, V domains shown) VH: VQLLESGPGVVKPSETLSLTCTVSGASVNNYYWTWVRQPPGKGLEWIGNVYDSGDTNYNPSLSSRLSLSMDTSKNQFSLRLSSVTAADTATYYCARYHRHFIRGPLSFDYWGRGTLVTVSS VL: LQMTQSPSFLSASVGDRVSITCRASQDIQKFLAWYQLTPGDAPKLLMYSASTLQAGVPSRFSGSGSGTEFTLTISGLQPEDFATYYCQHLKRYPYTFGQGTKLEIS

Marked response:
1: 0.0017; 2: 0.00066
